The origin of these recorded values is paper PMC6234866.

system: TlpQ-LBD (Pseudomonas aeruginosa)
protocol.description: biochemical
Type: binding, Pseudomonas aeruginosa PAO1
pKd: −log10 of the molar value.
Listing of entries alongside the reported pKd.

| chem.smiles | system | pKd |
| --- | --- | --- |
| NCCCCN=C(N)N | TlpQ-LBD (Pseudomonas aeruginosa) | 6.82 |
| NCCCCCN | TlpQ-LBD (Pseudomonas aeruginosa) | 6.82 |
| NCCc1c[nH]cn1 | TlpQ-LBD (Pseudomonas aeruginosa) | 6.19 |
| NCCCCNCCCN | TlpQ-LBD (Pseudomonas aeruginosa) | 7.25 |
| NCCCCN | TlpQ-LBD (Pseudomonas aeruginosa) | 6.87 |

* * *

system: TlpQ-LBD
protocol.description: biochemical
Assay type: binding, Pseudomonas aeruginosa PAO1
details: ratio of ITC KD values
Reported KD McpU-LBD/KD TlpQ-LBD values follow for various compounds
experimental.readout: KD McpU-LBD/KD TlpQ-LBD

| chem.smiles | recorded.result |
| --- | --- |
| NCCN | 23 |
| NCCc1c[nH]cn1 | 41 |
| NCCCCNCCCN | 80 |
| NCCCCN | 15 |
| NCCCCCN | 147 |
| NCCCCN=C(N)N | 3 |

* * *

system: McpU-LBD (Pseudomonas putida, UniProt Q88NI1)
Sequence (Q88NI1 50-284): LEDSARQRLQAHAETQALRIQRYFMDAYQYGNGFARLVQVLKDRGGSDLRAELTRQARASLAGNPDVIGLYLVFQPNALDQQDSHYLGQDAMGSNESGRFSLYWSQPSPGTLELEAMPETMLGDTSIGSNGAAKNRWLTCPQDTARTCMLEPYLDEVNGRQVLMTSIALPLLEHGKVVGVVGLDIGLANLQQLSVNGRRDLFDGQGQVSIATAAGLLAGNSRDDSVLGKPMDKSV
protocol.description: ITC binding of ligands to McpU-LBD
Set-up: species or system Pseudomonas putida KT2440
details: 25°C
experimental.readout: ΔH McpU-LBD

| compound | recorded.result |
| --- | --- |
| NCCCCN=C(N)N [Agmatine] | -14.5 ± 0.2 kcal/mol |
| NCCCCCN [Cadaverine] | -15.5 ± 0.5 kcal/mol |
| NCCN [Ethylenediamine] | -9.7 ± 0.5 kcal/mol |
| NCCCCN [Putrescine] | -15 ± 0.5 kcal/mol |
| NCCCCNCCCN [Spermidine] | -4.3 ± 0.3 kcal/mol |
| NCCc1c[nH]cn1 [Histamine] | -2.6 ± 0.3 kcal/mol |

* * *

system: TlpQ-LBD (Pseudomonas aeruginosa)
protocol.description: biochemical
Type: binding, Pseudomonas aeruginosa PAO1
details: ITC, 25°C

| compound | ΔH TlpQ-LBD |
| --- | --- |
| NCCCCNCCCN [Spermidine] | -4.6 ± 0.4 kcal/mol |
| NCCc1c[nH]cn1 [Histamine] | -9.1 ± 0.3 kcal/mol |
| NCCCCN [Putrescine] | -6.8 ± 0.3 kcal/mol |
| NCCCCN=C(N)N [Agmatine] | -5.4 ± 0.1 kcal/mol |
| NCCN [Ethylenediamine] | -6.3 ± 0.6 kcal/mol |
| NCCCCCN [Cadaverine] | -6.0 ± 0.1 kcal/mol |

* * *

system: TlpQ-LBD (Pseudomonas aeruginosa, UniProt Q9I0I4)
Sequence (Q9I0I4 33-359): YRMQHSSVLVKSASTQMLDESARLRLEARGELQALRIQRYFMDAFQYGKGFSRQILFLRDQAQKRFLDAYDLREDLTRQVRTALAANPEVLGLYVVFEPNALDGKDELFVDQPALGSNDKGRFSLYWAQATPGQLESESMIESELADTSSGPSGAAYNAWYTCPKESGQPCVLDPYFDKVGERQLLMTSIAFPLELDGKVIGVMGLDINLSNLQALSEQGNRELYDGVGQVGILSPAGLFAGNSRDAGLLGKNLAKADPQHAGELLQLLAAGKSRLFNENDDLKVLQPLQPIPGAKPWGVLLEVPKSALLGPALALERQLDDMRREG
protocol.description: biochemical
Format: binding, Pseudomonas aeruginosa PAO1
details: ITC, 25°C, polybuffer pH 7.0; read-out: KD TlpQ-LBD
experimental.readout: Kd (nM)

| chem.smiles | recorded.result |
| --- | --- |
| NCCN | 1710 |

* * *

system: McpU-LBD (Pseudomonas putida)
protocol.description: ITC binding of ligands to McpU-LBD
Set-up: species or system Pseudomonas putida KT2440
details: 25°C, polybuffer pH 7.0
pKd: −log10 of the molar value.
# reported pKd; entries follow

| chem.smiles | pKd |
| --- | --- |
| NCCc1c[nH]cn1 | 4.59 |
| NCCCCN=C(N)N | 6.32 |
| NCCN | 4.41 |
